Hey, just so you know, these numbers are from patent US20190144529A1.

target: T1, human serum albumin (human, UniProt P02768 25-609); test: SPR, Fab captured; albumin taken as HSA;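 also: antibody captured on the sensor surface, albumin injected for a 3 min association phase, then dissociation followed, with signals corrected against a blank flow cell and buffer-only injections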
T1 construct: mature; Bought purified serum albumin; also called HSA; Human albumin
binders and their reported koff
Your answer should be a plain number; it is taken to be in s⁻¹.

INSERT INTO assay_data (binder, reported_result) VALUES
  ('CA645 gL24gH5 Fab (Fab, V domains shown, Fab: human gamma1 CH1, human kappa (Km3); Kabat numbering) VH: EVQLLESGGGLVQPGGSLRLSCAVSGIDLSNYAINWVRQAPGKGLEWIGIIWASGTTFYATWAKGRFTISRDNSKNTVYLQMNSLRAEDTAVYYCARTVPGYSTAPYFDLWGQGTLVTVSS VL: DIQMTQSPSSVSASVGDRVTITCQSSPSVWVNFLSWYQQKPGKAPKLLIYEASKLTSGVPSRFSGSGSGTDFTLTISSLQPEDFATYYCGGGYSSISDTTFGGGTKVEIK', 0.000883),
  ('CA645 gL4gH32 Fab (Fab, V domains shown, Fab: human gamma1 CH1, human kappa (Km3); Kabat numbering) VH: EVQLLESGGGLVQPGGSLRLSCAVSGIDLSNYAINWVRQAPGKGLEWIGIIWAIGTTFYATWAKGRFTISRDNSKNTVYLQMNSLRAEDTAVYYCARTVPGYSTAPYFDLWGQGTLVTVSS VL: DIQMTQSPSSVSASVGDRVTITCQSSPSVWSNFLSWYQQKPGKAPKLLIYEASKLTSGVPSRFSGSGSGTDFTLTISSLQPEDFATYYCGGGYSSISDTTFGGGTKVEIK', 0.000169),
  ('CA645 gL15gH5 Fab (Fab, V domains shown, Fab: human gamma1 CH1, human kappa (Km3); Kabat numbering) VH: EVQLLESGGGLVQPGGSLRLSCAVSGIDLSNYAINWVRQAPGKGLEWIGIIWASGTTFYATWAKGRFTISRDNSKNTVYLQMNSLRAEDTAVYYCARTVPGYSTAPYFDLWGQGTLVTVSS VL: DIQMTQSPSSVSASVGDRVTITCQSSPSVWRNFLSWYQQKPGKAPKLLIYEASKLTSGVPSRFSGSGSGTDFTLTISSLQPEDFATYYCGGGYSSISDTTFGGGTKVEIK', 0.000277);

Q: For CA645 gL4gH31 Fab (Fab, V domains shown, Fab: human gamma1 CH1, human kappa (Km3); Kabat numbering) VH: EVQLLESGGGLVQPGGSLRLSCAVSGIDLSNYAINWVRQAPGKGLEWIGIIWAVGTTFYATWAKGRFTISRDNSKNTVYLQMNSLRAEDTAVYYCARTVPGYSTAPYFDLWGQGTLVTVSS VL: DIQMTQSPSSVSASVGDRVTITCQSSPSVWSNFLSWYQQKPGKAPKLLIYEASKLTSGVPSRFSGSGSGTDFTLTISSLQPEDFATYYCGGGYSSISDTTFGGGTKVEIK , what is its reported koff?
Result: 0.000167

Q: For CA645 gL4gH35 Fab (Fab, V domains shown, Fab: human gamma1 CH1, human kappa (Km3); Kabat numbering) VH: EVQLLESGGGLVQPGGSLRLSCAVSGIDLSNYAINWVRQAPGKGLEWIGIIWAEGTTFYATWAKGRFTISRDNSKNTVYLQMNSLRAEDTAVYYCARTVPGYSTAPYFDLWGQGTLVTVSS VL: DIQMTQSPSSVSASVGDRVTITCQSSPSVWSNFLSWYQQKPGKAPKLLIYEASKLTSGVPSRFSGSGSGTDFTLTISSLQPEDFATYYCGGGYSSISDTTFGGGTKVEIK , what is its reported koff?
Result: 0.000399

Q: Give the measured koff of CA645 gL22gH5 Fab (Fab, V domains shown, Fab: human gamma1 CH1, human kappa (Km3); Kabat numbering) VH: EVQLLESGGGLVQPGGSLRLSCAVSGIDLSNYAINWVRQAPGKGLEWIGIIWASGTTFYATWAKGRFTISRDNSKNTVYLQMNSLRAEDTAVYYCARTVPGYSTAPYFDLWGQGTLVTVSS VL: DIQMTQSPSSVSASVGDRVTITCQSSPSVWHNFLSWYQQKPGKAPKLLIYEASKLTSGVPSRFSGSGSGTDFTLTISSLQPEDFATYYCGGGYSSISDTTFGGGTKVEIK .
Result: 0.000478

Q: Recorded koff for CA645 gL18gH5 Fab (Fab, V domains shown, Fab: human gamma1 CH1, human kappa (Km3); Kabat numbering) VH: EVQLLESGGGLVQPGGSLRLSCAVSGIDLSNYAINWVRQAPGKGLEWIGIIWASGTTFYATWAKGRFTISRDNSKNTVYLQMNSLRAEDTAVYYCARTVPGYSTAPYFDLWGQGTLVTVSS VL: DIQMTQSPSSVSASVGDRVTITCQSSPSVWINFLSWYQQKPGKAPKLLIYEASKLTSGVPSRFSGSGSGTDFTLTISSLQPEDFATYYCGGGYSSISDTTFGGGTKVEIK , please?
Result: 0.000823

Q: Form field: reported koff of CA645 gL23gH5 Fab (Fab, V domains shown, Fab: human gamma1 CH1, human kappa (Km3); Kabat numbering) VH: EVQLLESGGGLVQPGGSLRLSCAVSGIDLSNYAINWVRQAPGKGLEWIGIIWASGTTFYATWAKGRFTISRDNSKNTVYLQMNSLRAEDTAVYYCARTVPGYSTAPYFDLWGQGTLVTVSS VL: DIQMTQSPSSVSASVGDRVTITCQSSPSVWLNFLSWYQQKPGKAPKLLIYEASKLTSGVPSRFSGSGSGTDFTLTISSLQPEDFATYYCGGGYSSISDTTFGGGTKVEIK
Result: 0.000814
